- Study system: T1, recombinant human CD3 epsilon/delta heterodimer (human, UniProt P07766 23-126; P04234 22-105)
- T1 construct: Recombinant protein in solution (200-50 nM) in the Octet assay; also called hCD3 E/D; human CD3E/D
- T1 sequence (P07766 23-126, stated change not applied, chain 1 of 2): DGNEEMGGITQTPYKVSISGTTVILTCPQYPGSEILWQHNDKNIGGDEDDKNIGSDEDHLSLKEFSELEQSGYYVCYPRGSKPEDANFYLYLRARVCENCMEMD
- T1 sequence (P04234 22-105, stated change not applied, chain 2 of 2): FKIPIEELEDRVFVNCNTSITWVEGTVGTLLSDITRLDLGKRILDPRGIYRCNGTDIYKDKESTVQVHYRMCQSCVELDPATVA
- Protocol description: Octet BLI, mAb on FAB2G sensor, hCD3 E/D 200-50 nM; R^2 0.98;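 further: antibodies purified from hybridoma supernatants, measured by Octet binding to recombinant human CD3 protein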
Reported endpoint: pKd
# pKd = -log10(concentration in molar units)

| Binder | pKd |
| --- | --- |
| ABL-CD3-62 (antibody, V domains shown, Chimeric hybridoma mAb: human V, CH1, upper hinge; mouse middle hinge, CH2, CH3) VH: EVQLVESGGGLVKPGGSLRLSCAASGFTFSSYSMNWVRQAPGKGLEWVSSISRSSGYIFYADSVKGRFTISRDNAKNSLYLQMNSLRAEDTAVYYCVRERVGAGFDYWGQGTLVTVSS VL: NFMLTQPHSVSESPGKTVAISCTRSSGSIASNYVQWYQQRPGSSPTAVIYEDNQRPSGVPDRFSGSIDSSSNSAFLTISGLKTEDEADYYCQSYDSSNRVFGGGTKLTVL | 7.47 |
| ABL-CD3-51 (antibody, V domains shown, Chimeric hybridoma mAb: human V, CH1, upper hinge; mouse middle hinge, CH2, CH3) VH: EVQLVESGGGLVKPGGSLRLSCAASGFTFSSYSMNWVRQAPGKGLEWVSSISRSSSYIYYADSVKGRFTISRDNAKNSLYLQMNSLRAEDTAVYYCARERWELLYFDYWGQGTLVTVSS VL: NFMLTQPHSVSESPGKTVTISCTRSSGSIASNYVQWYQQRPGSSPTTVIYEDNQRPSGVPDRFSGSIDSSSNSASLTISGLKTEDEADYYCQSYDSSNRVFGGGTKLTVL | 7.11 |
| ABL-CD3-21 (antibody, V domains shown, Chimeric hybridoma mAb: human V, CH1, upper hinge; mouse middle hinge, CH2, CH3) VH: EVQLVESGGGLVKPGGSLRLSCAASGFTFSSYSMNWVRQAPGKGLEWVSSISRSSSYIYYADSVKGRFTLSRDNAKNSLYLQMNSLRGEDTAIYYCGRDGKGAIFLDYWGQGTLVTVSS VL: SYELTQPPSVSVSPGQTARITCSGDALPKKYAYWYQQKSGQAPVLVIYEDSKRPSGIPERFSGSSSGTMATLTISGAQVEDEADYYCYSTHSSGNHRVFGGGTKLTVL | 7.02 |

Tell me its pKd given ABL-CD3-44 (antibody, V domains shown, Chimeric hybridoma mAb: human V, CH1, upper hinge; mouse middle hinge, CH2, CH3) VH: EVQLVESGGGLVQPGGSLRLSCAASGFTFSTYWMSWVRQAPGKGLEWVANIKQDGSEKYYVDSVKGRFTISRDNAKNSLYLQMNSLRAEDTAVYYCATGSFDYWGQGTLVTVSS VL: QPVLTQPSSHSASSGASVRLTCMLSSGFSVGDFWIRWYQQKPGNPPRYLLFYHSDSNKGQGSGVPSRFSGSNDASANAGILRISGLQPEDEADYYCGTWHSNSKTWVFGGGTKLTVL as the entry.
6.45

Report pKd for ABL-CD3-61 (antibody, V domains shown, Chimeric hybridoma mAb: human V, CH1, upper hinge; mouse middle hinge, CH2, CH3) VH: EVQLVESGGGLVKPGGSLRLSCAASGFTFSSYSMNWVRQAPGKGLEWVSSISRSGTYIYYADSVKGRFTISRDNAKNSLYLQMNSLRAEDTAVYYCARERWELLYFDYWGQGTLVTVSS VL: QTVVTQEPSLTVSPGGTVTLTCASSTGAVTSGYYPNWFQQKPGQAPRALIYSTSNKHSWTPARFSGSLLGGKAALTLSGVQPEDEAEYYCLLYYGGAYVFGTGTKVTVL
6.93

Please list pKd recorded for the binder ABL-CD3-52 (antibody, V domains shown, Chimeric hybridoma mAb: human V, CH1, upper hinge; mouse middle hinge, CH2, CH3) VH: EVQLVESGGGLVKPGGSLRLSCAASGFTFSYYSMNWVRQAPGKGLEWVSSISRSTTYIYYADSVKGRFTISRDNAKNSLYLQMNSLRAEDTAVYYCARDGKGAIFLDYWGQGTLVTVSS VL: SYELTQPPSVSVSPGQTARITCSGDALPKKYAYWYQQKSGQAPVLVIYEDSKRPSGIPERFSGSSSGTMATLTISGAQVEDEADYYCYSTDSSGNHRVFGGGTKLTVL
7.27
